As shown below, each of these compounds has a reported inhibition value.
Target: 17-beta-hydroxysteroid dehydrogenase type 3 (Homo sapiens)
Assay: Inhibition of 17Beta-HSD3 expressed in homogenized HEK293 cells assessed as transformation of [14C]-4-androstene-3,17-dione into [14C]-testosterone in presence of NADPH at 0.01 uM
Type: cell-based
measuredQuantity: inhibition (%)

[
  {
    "givenSmiles": "CN1CCN(C[C@@]2(O)CC[C@@]3(C)[C@@H](CC[C@@H]4[C@@H]3CC[C@]3(C)C(=O)CC[C@@H]43)C2)CC1",
    "measuredQuantity": "inhibition",
    "measurementUnits": "%",
    "reported": 0
  },
  {
    "givenSmiles": "COc1cccc(CN2C[C@@H](C)N(C[C@@]3(O)CC[C@@]4(C)[C@@H](CC[C@@H]5[C@@H]4CC[C@]4(C)C(=O)CC[C@@H]54)C3)C[C@@H]2C)c1",
    "measuredQuantity": "inhibition",
    "measurementUnits": "%",
    "reported": 19
  },
  {
    "givenSmiles": "C[C@@H]1CN(Cc2cc(C(F)(F)F)ccc2C(F)(F)F)[C@@H](C)CN1C[C@@]1(O)CC[C@@]2(C)[C@@H](CC[C@@H]3[C@@H]2CC[C@]2(C)C(=O)CC[C@@H]32)C1",
    "measuredQuantity": "inhibition",
    "measurementUnits": "%",
    "reported": 16
  }
]

---

Target: 17-beta-hydroxysteroid dehydrogenase type 3 (Homo sapiens)
Sequence (whole entry): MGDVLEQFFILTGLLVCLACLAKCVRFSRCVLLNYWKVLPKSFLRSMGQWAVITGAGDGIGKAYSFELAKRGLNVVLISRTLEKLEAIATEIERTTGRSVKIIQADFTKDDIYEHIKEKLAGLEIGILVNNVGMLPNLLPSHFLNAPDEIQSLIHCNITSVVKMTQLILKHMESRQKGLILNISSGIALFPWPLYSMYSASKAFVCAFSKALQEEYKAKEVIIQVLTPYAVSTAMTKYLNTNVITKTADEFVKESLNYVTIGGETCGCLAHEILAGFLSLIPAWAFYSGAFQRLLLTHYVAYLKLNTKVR
Assay: Inhibition of 17Beta-HSD3 expressed in homogenized HEK293 cells assessed as transformation of [14C]-4-androstene-3,17-dione into [14C]-testosterone in presence of NADPH at 1 uM
Format: cell-based
As shown below, each of these compounds has a reported inhibition value.
measuredQuantity: inhibition

[
  {
    "givenSmiles": "C[C@]12CC[C@@]3(C[C@@H]1CC[C@@H]1[C@@H]2CC[C@]2(C)C(=O)CC[C@@H]12)CN(CCN1CCCCC1)C(=O)O3",
    "reported": "21%"
  },
  {
    "givenSmiles": "C[C@]12CC[C@@]3(C[C@@H]1CC[C@@H]1[C@@H]2CC[C@]2(C)C(=O)CC[C@@H]12)CN(CCBr)C(=O)O3",
    "reported": "93%"
  },
  {
    "givenSmiles": "C[C@]12CC[C@](O)(CN3CCCCC3)C[C@@H]1CC[C@@H]1[C@@H]2CC[C@]2(C)C(=O)CC[C@@H]12",
    "reported": "69%"
  },
  {
    "givenSmiles": "CN1CCN(C[C@@]2(O)CC[C@@]3(C)[C@@H](CC[C@@H]4[C@@H]3CC[C@]3(C)C(=O)CC[C@@H]43)C2)CC1",
    "reported": "40%"
  },
  {
    "givenSmiles": "CN(Cc1ccccc1)C[C@@]1(O)CC[C@@]2(C)[C@@H](CC[C@@H]3[C@@H]2CC[C@]2(C)C(=O)CC[C@@H]32)C1",
    "reported": "89%"
  },
  {
    "givenSmiles": "CCN(CCN1C[C@]2(CC[C@@]3(C)[C@@H](CC[C@@H]4[C@@H]3CC[C@]3(C)C(=O)CC[C@@H]43)C2)OC1=O)Cc1ccccc1",
    "reported": "93%"
  },
  {
    "givenSmiles": "CCCN(CCC)CCN1C[C@]2(CC[C@@]3(C)[C@@H](CC[C@@H]4[C@@H]3CC[C@]3(C)C(=O)CC[C@@H]43)C2)OC1=O",
    "reported": "62%"
  }
]
